- measurementTarget: IRAK4 (Homo sapiens, UniProt Q9NWZ3)
- Construct: Degradation of IRAK4 in OCI-LY10 was quantitatively measured using Meso Scale Discovery technology; endogenous in cells; host or cells: OCI-LY10
- Sequence (Q9NWZ3 whole entry): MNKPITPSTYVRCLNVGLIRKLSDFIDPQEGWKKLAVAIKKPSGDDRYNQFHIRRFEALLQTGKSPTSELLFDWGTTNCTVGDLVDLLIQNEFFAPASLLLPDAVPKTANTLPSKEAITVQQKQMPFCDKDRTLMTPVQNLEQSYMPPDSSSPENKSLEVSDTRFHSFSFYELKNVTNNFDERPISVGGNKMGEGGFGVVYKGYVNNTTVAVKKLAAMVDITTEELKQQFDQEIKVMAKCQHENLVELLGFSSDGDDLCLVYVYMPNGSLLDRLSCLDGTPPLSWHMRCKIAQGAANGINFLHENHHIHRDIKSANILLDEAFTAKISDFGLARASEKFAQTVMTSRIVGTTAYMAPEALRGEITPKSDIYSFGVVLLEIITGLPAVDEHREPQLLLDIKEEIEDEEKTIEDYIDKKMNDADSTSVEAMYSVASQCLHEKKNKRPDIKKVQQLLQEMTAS
- procedureSummary: IRAK4 MSD Degradation in OCI-LY10
- Type: cell-based
- conditionSet: OCI-LY10 cells, 4 hrs incubation, MSD; read-out: IRAK4 degradation in OCI-LY10 at 4 hrs: DC50
DC50 listing for selected molecules.
outcomeMeasure: DC50

molecule: Cn1c(=O)n(C2CCC(=O)NC2=O)c2cccc(N3CC(O[C@@H]4CCN(C[C@H]5CC[C@H](n6cc(NC(=O)c7cnn8ccc(N9C[C@H]%10C[C@@H]9CO%10)nc78)c(C(F)F)n6)CC5)C[C@@H]4F)C3)c21 (some centres unmarked) [I-581]
outcomeMeasure: DC50
measurement: > 200 nM
--
molecule: Cn1c(=O)n(C2CCC(=O)NC2=O)c2cccc(N3CC(F)(CN(C)[C@H]4CC[C@H](n5cc6cc(NC(=O)c7cccc(C(F)(F)F)n7)ncc6n5)CC4)C3)c21 (some centres unmarked) [I-789]
outcomeMeasure: DC50
measurement: > 200 nM
--
molecule: Cn1c(=O)n(C2CCC(=O)NC2=O)c2cccc(N3CCN(CC4CCC(n5cc(NC(=O)c6cnn7ccc(N8CC9C[C@@H]8CO9)nc67)c(C(F)F)n5)CC4)CC3)c21 (some centres unmarked) [I-189]
outcomeMeasure: DC50
measurement: 10 to 100 nM
--
molecule: COc1cc2nn([C@H]3CC[C@H](CN4CC=C(c5ccc6c(c5)n(C)c(=O)n6C5CCC(=O)NC5=O)C(F)(F)C4)CC3)cc2cc1NC(=O)c1cccc(C(F)(F)F)n1 (some centres unmarked) [I-462]
outcomeMeasure: DC50
measurement: > 200 nM
--
molecule: CN(C[C@H]1CC[C@H](n2cc(NC(=O)c3cnn4ccc(N5CCOC6(CC6)C5)nc34)c(C(F)F)n2)CC1)C1CCN(c2cccc3c2n(C)c(=O)n3C2CCC(=O)NC2=O)CC1 (some centres unmarked) [I-356]
outcomeMeasure: DC50
measurement: > 200 nM
--
molecule: Cn1c(=O)n(C2CCC(=O)NC2=O)c2cccc(C#CCN3CCN(C[C@H]4CC[C@H](n5cc(NC(=O)c6cnn7ccc(N8CC9(CCCOC9)C8)nc67)c(C(F)F)n5)CC4)CC3)c21 (some centres unmarked) [I-318]
outcomeMeasure: DC50
measurement: 10 to 100 nM
--
molecule: CN(C[C@H]1CC[C@H](n2cc(NC(=O)c3cnn4ccc(N5C[C@@H]6C[C@H]5CO6)nc34)c(C(F)F)n2)CC1)C1CCN(c2cccc3c2n(C)c(=O)n3C2CCC(=O)NC2=O)CC1(F)F (some centres unmarked) [I-523]
outcomeMeasure: DC50
measurement: > 200 nM
--
molecule: Cn1c(=O)n(C2CCC(=O)NC2=O)c2cccc(N3CC(O[C@@H]4CCN(C[C@H]5CC[C@H](n6cc(NC(=O)c7cnn8ccc(N9C[C@H]%10C[C@@H]9CO%10)nc78)c(C(F)F)n6)CC5)C[C@H]4F)C3)c21 (some centres unmarked) [I-582]
outcomeMeasure: DC50
measurement: > 200 nM
--
molecule: CN(C[C@H]1CC[C@H](n2cc3cc(NC(=O)c4cccc(C(F)(F)F)n4)c(C#N)cc3n2)CC1)C1CCN(c2cccc3c2n(C)c(=O)n3C2CCC(=O)NC2=O)CC1F (some centres unmarked) [I-558]
outcomeMeasure: DC50
measurement: > 200 nM
--
molecule: Cn1c(=O)n(C2CCC(=O)NC2=O)c2cccc(CC[C@H]3CN(Cc4ccc(-n5cc(NC(=O)c6cnn7ccc(N8C[C@H]9C[C@@H]8CO9)nc67)c(C(F)F)n5)cc4)CCO3)c21 (some centres unmarked) [I-386]
outcomeMeasure: DC50
measurement: > 200 nM
--
molecule: Cn1c(=O)n(C2CCC(=O)NC2=O)c2cccc(C3CCN(C[C@H]4CC[C@H](n5cc6cc(NC(=O)c7cccc(C(F)(F)F)n7)c(F)cc6n5)CC4)CC3F)c21 (some centres unmarked) [I-554]
outcomeMeasure: DC50
measurement: > 200 nM
--
molecule: Cn1c(=O)n(C2CCC(=O)NC2=O)c2cccc(C#CCN3CCN(C[C@H]4CC[C@H](n5cc(NC(=O)c6cnn7ccc(N8CCOC(C(F)(F)F)C8)nc67)c(C(F)F)n5)CC4)CC3)c21 (some centres unmarked) [I-322]
outcomeMeasure: DC50
measurement: > 200 nM
--
molecule: CN(C[C@H]1CC[C@H](n2cc(NC(=O)c3cnn4ccc(N5CCCC5(C)C)nc34)c(C(F)F)n2)CC1)C1CCN(c2cccc3c2n(C)c(=O)n3C2CCC(=O)NC2=O)CC1(F)F (some centres unmarked) [I-513]
outcomeMeasure: DC50
measurement: > 200 nM
--
molecule: Cn1c(=O)n(C2CCC(=O)NC2=O)c2cccc([C@H]3CCN(C[C@H]4CC[C@H](n5cc6cc(NC(=O)c7cccc(C#N)n7)c(C(C)(C)O)cc6n5)CC4)C[C@H]3F)c21 (some centres unmarked) [I-651]
outcomeMeasure: DC50
measurement: > 200 nM
--
molecule: Cn1c(=O)n(C2CCC(=O)NC2=O)c2cccc(C#CCOC3CCN(C[C@H]4CC[C@H](n5cc(NC(=O)c6cnn7ccc(N8CCSCC8)nc67)c(C(F)F)n5)CC4)CC3)c21 (some centres unmarked) [I-303]
outcomeMeasure: DC50
measurement: > 200 nM
--
molecule: CN(C[C@H]1CC[C@H](n2cc(NC(=O)c3cnn4ccc(N5CCC(F)(F)CC5)nc34)c(C(F)F)n2)CC1)C1CCN(c2cccc3c2n(C)c(=O)n3C2CCC(=O)NC2=O)CC1(F)F (some centres unmarked) [I-519]
outcomeMeasure: DC50
measurement: > 200 nM
--
molecule: Cn1c(=O)n(C2CCC(=O)NC2=O)c2cccc(C#CCN3CCN(C[C@H]4CC[C@H](n5cc(NC(=O)c6cnn7ccc(N8CCOC(C)(C)C8)nc67)c(C(F)F)n5)CC4)CC3)c21 (some centres unmarked) [I-111]
outcomeMeasure: DC50
measurement: < 10 nM
--
molecule: COc1cc2nn([C@H]3CC[C@H](CN4CCC5(CC4)CC(Oc4cccc6c4C(=O)N(C4CCC(=O)NC4=O)C6=O)C5)CC3)cc2cc1NC(=O)c1cccc(C(F)(F)F)n1 (some centres unmarked) [I-138]
outcomeMeasure: DC50
measurement: > 200 nM
--
molecule: CO[C@]1(CN2CCN(C[C@H]3CC[C@H](n4cc(NC(=O)c5cnn6ccc(N7C[C@H]8CC7CO8)nc56)c(C(F)F)n4)CC3)CC2)C[C@H](c2cccc3c2n(C)c(=O)n3C2CCC(=O)NC2=O)C1 (some centres unmarked) [I-579]
outcomeMeasure: DC50
measurement: > 200 nM
--
molecule: CN(C[C@H]1CC[C@H](n2cc(NC(=O)c3cnn4ccc(N5CC6CCC(C5)O6)nc34)c(C(F)F)n2)CC1)C1CCN(c2cccc3c2n(C)c(=O)n3C2CCC(=O)NC2=O)CC1(F)F (some centres unmarked) [I-526]
outcomeMeasure: DC50
measurement: > 200 nM
